The measured values listed here are drawn from PubChem BioAssay AID460.

Recorded inhibition by entry
- Assayed target: Procathepsin L (Homo sapiens) (UniProt P07711)
- Sequence (P07711 114-288 limits assumed): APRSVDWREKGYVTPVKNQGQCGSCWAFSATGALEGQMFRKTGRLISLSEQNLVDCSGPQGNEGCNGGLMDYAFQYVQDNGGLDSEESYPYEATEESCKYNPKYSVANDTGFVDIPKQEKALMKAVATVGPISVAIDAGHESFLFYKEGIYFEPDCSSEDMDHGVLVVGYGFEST
- Sequence (P07711 292-333 limits assumed): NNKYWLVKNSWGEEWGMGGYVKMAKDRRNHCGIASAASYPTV
- Assay details: blockers of CTSL protease activity – biochemical (AID 460);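 further: 0% = enzyme with no compound and 100% = no enzyme blank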
- Protocol conditions: purified cathepsin L, fluorogenic substrate, fluorescence; active compounds read high;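 tested at 10 µM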
In all, about 58,000 compounds went through this assay and about 100 (0.17%) were called active. This excerpt belongs to a sample that is enriched for actives.
Measured metric: inhibition (%)

{"Molecule": "Fc1ccccc1OCCCCn1cncn1", "Measured": -6.79}
{"Molecule": "COc1ccc(C2CC(c3ccc(C)cc3)Nc3nc(N)nn32)cc1 (configuration not stated)", "Measured": -0.09}
{"Molecule": "CC(=O)Nc1nc(C)c(Cc2ccccc2)c(=O)[nH]1", "Measured": -7.6}
{"Molecule": "CSc1cccc(NC(=O)C2CCCN2S(=O)(=O)c2ccc3c(c2)CCC(=O)N3)c1 (configuration not stated)", "Measured": 7.66}
{"Molecule": "CCCCC(CC)C(=O)Nc1ccc(Cl)cn1 (configuration not stated)", "Measured": 1.2}
{"Molecule": "CN(CCCC(=O)Nc1nccs1)S(=O)(=O)c1ccc(Cl)cc1", "Measured": -4.71}
{"Molecule": "COc1ccc(Cn2cccc(NC(=O)Nc3ccc(C#N)cc3)c2=O)cc1", "Measured": -10.3}
{"Molecule": "CC1CCc2c(sc3c2C2=NS(=O)(=O)CCN2C=N3)C1 (configuration not stated)", "Measured": 0.12}
{"Molecule": "COc1ccc(S(=O)(=O)Nc2ccc3c(c2)OCO3)cc1Cl", "Measured": 3.1}
{"Molecule": "CC(NC(=O)Nc1ccccc1)c1ccccc1 (configuration not stated)", "Measured": 1.63}
{"Molecule": "O=C(c1ccccc1)c1ccc2nc(N3CCCCC3)c3nncn3c2c1", "Measured": -3.17}
{"Molecule": "CCCOC(=O)CC1C(=O)NCCN1Cc1ccc(F)cc1 (configuration not stated)", "Measured": -5.6}
